// data source = the DeepSol protein solubility set

Test: soluble on expression in E. coli; label from the status in PepcDB or PDB records
Measurement kind: soluble on expression in E. coli

Monomer sequence: MGSDKIHHHHHHMEKFKGALVVGALRLFALLPWRAVQGVGAGIGWLMWKLPNRSREVVRINLSKCFPELSETELEKLVGQSLMDIGRTLTESACAWIWPPEKSLRYIREVEGMEVLEEALASGDGLVGITSHLGNWEVLNHFYCSYAKPIIFYRPPKLKAVDELLKKQRVQLGNRVAPSTPEGILSVIKEVKKGGCVGIPADPEPARTAGLFVPYLGTTALISKFVPQLLSRGKARGVFFHAVRLPDGSGYKVILEAAPADMYDKDLEVSVAAMSRELAKYVRAYPSQYMWSMKRFKNRPDGEKKWY
Reported: not soluble

Monomer sequence: MKLRHLPLIAAIGLFSTVTLAAGYTGPGATPTTTTVKAALEAADDTPVVLQGTIVKRIKGDIYEFRDATGSMKVEIDDEDFPPMEINDKTRVKLTGEVDRDLVGREIDVEFVEVIK
Reported: not soluble

Monomer sequence: MSSTKRPASRADEITQELVRMIQLADARRIAKLPTEMELAAQLGISRPVIRESLSRLESLNMVTRRQGSGLYIVAPEKRSPEALVLLEQSAPLSPRSIAEAMSVRAILELETGRLAALNHRQVDLDRMAAEIERLAATGARGLEAAEADEAFHRALSDAAGNVTLSQVLDLFLRLSWRRRVEYFSQPKLGKQSIIEHQEILNAVASGDPDAVSTAIRTHLNSAERFWDSKYVKKKS
Reported: not soluble

Monomer sequence: MGSDKIHHHHHHVSDSPLPDSETSAAAEFKVDNCALVLEGGGLRAIYTAGVLDAFLAAGIHFQYLVGVSAGAIYPASYLSRQMGRNLTIQQNFLADKRYMGLKHLLRTGNYVNTDFTYRRMAHELVPYDFDAFASSEAEFKVGAFNCLTGETDFFGMADFADHDTFLEVLIASSSLPFISKPTFIDGTPYLDGGIGAPIPLAQAREDGYKRQVVILTQEQDYRKSAFKAKWLAKRLYRRYPKVASALLARHQVYNQALDDLTKAQADGSALVLQPATPMGLSRLERDVSKVEAVYRRGLSEGEAFIPSLLAFIENC
Reported: not soluble

Monomer sequence: MSTVTITDLARENVRNLTPYQSARRLGGNGDVWLNANEYPTAVEFQLTQQTLNRYPECQPKAVIENYAQYAGVKPEQVLVSRGADEGIELLIRAFCEPGKDAILYCPPTYGMYSVSAETIGVECRTVPTLDNWQLDLQGISDKLDGVKVVYVCSPNNPTGQLINPQDFRTLLELTRGKAIVVADEAYIEFCPQASLAGWLAEYPHLAILRTLSKAFALAGLRCGFTLANEEVINLLMKVIAPYPLSTPVADIAAQALSPQGIVAMRERVAQIIAEREYLIAALKEIPCVEQVFDSETNYILARFKASSAVFKSLWDQGIILRDQNKQPSLSGCLRITVGTREESQRVIDALRAEQV
Reported: soluble

Monomer sequence: MLLETTPIKANHLRSILDYIEQEQLTAEDRNHCMKLSKKKSIEKKTIHPTVNLNGSACFLQSPSDAIFCRHLSLQYALDSLRNGKGKVNLIKHYSSVESIQQHVPLVRDAEFRALLRHPPAGSRVIASKDFGFALDIFFCRMMANNVSHMSAILYIDNHTLSVRLRIKQSVYGQLNYVVSVYDPNDTNVAVRDTHRTARGFLSLDKFISSGPDAQTWADRYVRNCAIAILPLLPVGVPGAIFAGIASRMPFAPIHPSAMLLIMATGQSQQLITLFKQLPILPEKEIIEIITAQNSVGTPALEHHHHHH
Reported: soluble

Monomer sequence: GMQTKVINFNDKFSLFNQHWSPRVIAEMNDYQFKLVKVEGEFVWHEHADTDEVFIVMEGTLQIAFRDQNITLQAGEMYVIPKGVEHKPMAKEECKIMIIEPR
Reported: soluble

Monomer sequence: MGSDKIHHHHHHMAISVTAEEKQILAGVTIPPRPQALLDISKEAKQEYPDVSKIAKAISEDVGISAAVLQVVNSVAFRRNNQISSIHQAVMTLGIKRIFPLVKAVAIKGALPENPMLNEFWQSSSMVASACTLYANLLGKANLSDNAYMLGLFHNAGVPVMLQAFPAYQALLMRGITEGWGEVASLEVQEFKTSHTTLGALLAQQWELPKPMVEVIYYLHDIDGIFTSGELSEVGLYLLAILKLARSSVDGVIRGECNTDEWLKIQDPLLAFLNLDEVQLDEFREEVAEKLRSEG
Reported: not soluble

Monomer sequence: MKAYDIEIVNDAAHAGEANHGWCFGLPPGIRPEQWPLDPDTGYPLMHGFTLLLPEDYRVHGPEIVALSFFSLAPDQNDGGPTSVDGIREMLIDPPAQPPAEAELRPFWEAGRNSHPRLHRMEDILGGAYALILLDAAEFSGAPCQPRALPAGNPLLAQTEPPQWLEAGSAASFVPDWAEDDYYLLRALGGRPAAGHQQRYPLRWTARAQDPNAGVVPSEYGDGGYQLPHYWLDGKIERDNYREHPWVEGHLPNHIGGTMRPVQGVPEMSPFYVEFEEYLGGYNFGGGNAQLDFRDMRFDWACG
Reported: not soluble

Monomer sequence: GPGSMELSFPDKYYEVAKYFDYYVGNLEESPLLSDAQRLMFYALRQQADHGQCTTAAPSFWNSRERHKHQAWKQLGRMSTFEAMVFFVQQFEQLLTQLENSTGQPASTSGATARAGAVDWPSRLREMKSKMAPSPGNRPHRSEALASDGAHATNDILAVRRGPSPA
Reported: soluble

Monomer sequence: EAAPAPAGKGKILAVTACPTGIAHTFMAADALKEKAKELGVEIKVETNGSSGIKHKLTAQEIEDAPAIIVAADKQVEMERFKGKRVLQVPVTAGIRRPQELIEKAMNQDAPIYQGSGGGSA
Reported: not soluble

Monomer sequence: MSLPSAQAPSLLNPTDDFAALGNIAWLWMNSPMHRDWPVHLLARNTLAPIQLGQYILLRCNDVPVAYCSWALMDADTELSYVMAPSSLGGNAWNCGDRLWIIDWIAPFSRDDNRALRRALAERHPDSVGRSLRVRRGGDTARVKEYRGRALDAAAARAQLDRYHAELIAGLRASNGGYAPREGHHHHHH
Reported: not soluble

====

Assay: soluble on expression in E. coli; label from the status in PepcDB or PDB records

Monomer sequence: MSLTQTILVIDDDAAVRGSFQLVLGEIGCVVRVAEDGLQGIAMAREERPDLIFLDLKMPGIDGVETMRRLLAMDPTFNIYIVTAFSQEYLDDLKQAQAEGMTFQLANKPLSSTQIRHIARSVRSLSNVSKDNHRISLTLYVVSVNPEIQKVVDQLSNVLAATYRAGFWVLNVVEVLGMPEKALEKDVFATPMLVREVPEPVLKLLGDLSRMHSVLSAITAENGHGAGTEGHHHHHH
soluble on expression in E. coli: soluble
--
Monomer sequence: MGSDKIHHHHHHMTLPPPRPPALCRGVVGLPLETQIDLTASNLAAVADLAAQYGLLIYLEALSWTPLNTIDRQLRTIEIANRDNIRLVIDFWHCYTSGDTPKHIARLHKDIIYGVHICDSLAYAGGVPDENMLRDVPTGNGVLNLKEWVDAVKSTGYDGWWSCELFCRRQHQENSYDVARSLNALMRDLVGA
soluble on expression in E. coli: not soluble
--
Monomer sequence: SPEIMKDLSINFGKALDTCKKELDLPDSINEDFYKFWKEDYEITNRLTGCAIKCLSEKLEMVDADGKLHHGNAREFAMKHGADDAMAKQLVDLIHGCEKSIPPNDDRCMEVLSIAMCFKKEIHNLKWAPNMEVVVGEVLAEV
soluble on expression in E. coli: soluble
--
Monomer sequence: MGSDKIHHHHHHMIKRRYMRTRQLKPGMIIDQVIKDPTGRNLVVQGSAIDDYIISSLLKLGIMSVYIREGNADPDDPDAILSPKAAAMVKQLRTDDRSKVTLSDSVRQRVSTGVQYIFNNTNSEELTQATNQIADSLMEAINENDAIAVDISSLKTSDEYTFKHSVDVATISMILAKQMKLPDNEIHDIGVSGLLHDIGKTMIPNEILNKPGRLTDDEFNIMKKHSVYGYNMLKDRKDLNNSILMGVLQHHERIDGTGYPLGFDAPKICQFAKILSVADVYDALVTKRPYKDALSQRDAVEMLMSMTNQLDIGVMRAFMSSMILYPVDSIVQLSNGEKARVVKNSEYYILRPTVVGVDSGRVYNLGNDLKCASIIIL
soluble on expression in E. coli: not soluble

====

Experiment: soluble on expression in E. coli; label from the status in PepcDB or PDB records
Measurement kind: soluble on expression in E. coli

Monomer sequence: MGSDKIHHHHHHMKGLDYCRQKAEESRSSFLSGFRFLTQEKQDAVTVLYAFCRELDDVVDECSNPDVAQATLNWWRGDLDNAFGGAMPEHPVNQALRQVKETFKLPKYELEALIDGMQMDLVQARYGSFEELKLYCRRVAGVVGCLIARILGFSDGKTLEYADKMGLALQLTNIIRDVGEDARRGRIYLPMEEMQRFDVPASVILQCSPTGNFAELMAFQIKRARETYREAVSLLPDADKKAQKVGLVMAAVYYALLNEIDRDGAQNVLKYKIALPSPRKKRIALKTWLFGFKPRPGTPERA
Reported: not soluble
//
Monomer sequence: SSAQFDHVTVIKKSNVYFGGLCISHTVQFEDGTKKTLGVILPTEQPLTFETHVPERMEIISGECRVKIADSTESELFRAGQSFYVPGNSLFKIETDEVLDYVCHLE
Reported: not soluble
